# Assay type: physicochemical
READOUT_KIND: OTNE Indexed Air/IPM partition coefficient
Lab note: record just the number, no unit beside it.

Some solved entries appear below for comparison.
COMPOUND: CCC(=O)OC1C2CC3CC(C2)CC1C3 (stereo not shown) [2-adamantyl propanoate]
VAL: 5.47
--
COMPOUND: CC(=O)C1(C)CC2=C(CCCC2(C)C)CC1C (stereo not shown) [OTNE, reference compound]
VAL: 1.00
--
COMPOUND: CC(=O)OC1C2CC3CC(C2)CC1C3 (stereo not shown) [2-adamantyl acetate]
VAL: 8.30

We next turn to a different compound, shown below.
[Q] Could you please provide reported OTNE Indexed Air/IPM partition coefficient for CC(=O)OC1(C)C2CC3CC(C2)CC1C3 (stereo not shown) [2-methyl-2-adamantyl acetate] ? Thanks!
[A] 8.67

----------
# Format: physicochemical
# EXPERIMENTAL_SETUP: headspace above about 2E+06 ng/mL solution in isopropyl myristate (IPM), 30° C.; average of three replicates
READOUT_KIND: Head-space (ng/mL)
Write the value in ng/mL as a bare number.

Some solved entries appear below for comparison.
COMPOUND: CC(=O)OC1C2CC3CC(C2)CC1C3 (stereo not shown) [2-adamantyl acetate]
Head-space, ng/mL: 0.1793

COMPOUND: CCC(=O)OC1C2CC3CC(C2)CC1C3 (stereo not shown) [2-adamantyl propanoate]
Head-space, ng/mL: 0.1182

COMPOUND: CC(=O)C1(C)CC2=C(CCCC2(C)C)CC1C (stereo not shown) [OTNE, reference compound]
Head-space, ng/mL: 0.0216

We next turn to a different compound, shown below.
[Q] Could you please provide reported Head-space for CC(=O)OC1(C)C2CC3CC(C2)CC1C3 (stereo not shown) [2-methyl-2-adamantyl acetate] ? Thanks!
[A] 0.1874

----------
# Type: physicochemical
# EXPERIMENTAL_SETUP: in isopropyl myristate (IPM), 30° C.; average of three replicates
# Experimental: Perfume headspace data is collected for various materials according to the method provided below. The partition coefficients are calculated by determining the amount of PRM in the headspace above a solution with a known concentration using a GC/FID-MS (Agilent 7890 and 5977A MSD) with a thermal desorption unit (Gerstel MPS2) and Dynamic Headspace Sampler (Gerstel DHS). This technique allows for automated headspace collections using the MultiPurposeSampler (MPS). […]
READOUT_KIND: Air/IPM partition coef

Some solved entries appear below for comparison.
COMPOUND: CCC(=O)OC1C2CC3CC(C2)CC1C3 (stereo not shown) [2-adamantyl propanoate]
Air/IPM partition coef: 5.71E−08 ng/mL in air per ng/mL in IPM
//
COMPOUND: CC(=O)OC1(C)C2CC3CC(C2)CC1C3 (stereo not shown) [2-methyl-2-adamantyl acetate]
Air/IPM partition coef: 9.05E−08 ng/mL in air per ng/mL in IPM

[Q] Could you please provide reported Air/IPM partition coef for CC(=O)OC1C2CC3CC(C2)CC1C3 (stereo not shown) [2-adamantyl acetate] ? Thanks!
[A] 8.66E−08 ng/mL in air per ng/mL in IPM

[Q] Could you please provide reported Air/IPM partition coef for CC(=O)C1(C)CC2=C(CCCC2(C)C)CC1C (stereo not shown) [OTNE, reference compound] ? Thanks!
[A] 1.04E−08 ng/mL in air per ng/mL in IPM
